Numbers sourced from patent US11279712B2.

Each item that follows carries a reported IC50.
- System tested: Mcl-1/Bim interaction (recombinant human Mcl-1 residues 171-327) (Homo sapiens (Human))
- Sequence (Q07820 171-327): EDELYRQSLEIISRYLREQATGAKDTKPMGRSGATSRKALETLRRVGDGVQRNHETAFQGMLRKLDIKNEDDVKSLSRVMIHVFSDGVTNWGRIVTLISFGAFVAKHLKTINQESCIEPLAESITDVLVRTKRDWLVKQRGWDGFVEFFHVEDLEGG
- Experiment notes: Cell Free Mcl-1:Bim Affinity Assay (Mcl-1 HTRF)
- Conditions: TR-FRET, 0.1 nM Mcl-1(171-327), 0.05 nM biotin-Bim(51-76)
Quick reminder: number only, in nM, skip the unit.

Previously resolved entries follow.
>>> reading("C[C@@H]1[C@@H](C)CCC[C@@H]([C@@H](O)c2ccccc2)[C@@H]2CC[C@H]2CN2C[C@@]3(CCCc4cc(Cl)ccc43)COc3ccc(cc32)C(=O)NS1(=O)=O (single isomer, unassigned)")
11.4
>>> reading("C[C@@H]1[C@@H](C)CCC[C@H]([C@@H](C)O)[C@@H]2CC[C@H]2CN2C[C@@]3(CCCc4cc(Cl)ccc43)COc3ccc(cc32)C(=O)NS1(=O)=O (single isomer, unassigned) [Example 58]")
0.995
>>> reading("C[C@@H]1[C@@H](C)CCC[C@H](CO)[C@@H]2CC[C@H]2CN2C[C@@]3(CCCc4cc(Cl)ccc43)COc3ccc(cc32)C(=O)NS1(=O)=O (single isomer, unassigned) [Example 63]")
0.997

Challenge: Could you tell me which IC50 is on file for C[C@@H]1[C@@H](C)CCC[C@H]([C@H](O)c2ccccc2)[C@@H]2CC[C@H]2CN2C[C@@]3(CCCc4cc(Cl)ccc43)COc3ccc(cc32)C(=O)NS1(=O)=O (single isomer, unassigned) ?
Response given: 2.36

Challenge: Let us now turn to COCC[C@@H]1[C@@H](C)CCC[C@H](CO)[C@@H]2CC[C@H]2CN2C[C@@]3(CCCc4cc(Cl)ccc43)COc3ccc(cc32)C(=O)NS1(=O)=O (single isomer, unassigned) [Example 59]
Response given: 0.921
